molecular target: T1, PCSK9-D374Y-BP15-His6 (human, UniProt Q8NBP7 31-692, biotin on the BP15 biotin receiving peptide); assay: ELISA, bio-PCSK9-Y captured on streptavidin plate
T1 construct: also called PCSK9-Y; mutant PCSK9
Measured property: EC50 (µg/mL)
Your answer should be a plain number; it is taken to be in µg/mL.

| Binder | EC50 (µg/mL) |
| --- | --- |
| h001-10 (antibody, human IgG1, V domains shown, Variable regions only; also called h001_VH.1B + h001_VL.1A) VH: QVQLVQSGAEVKKPGASVKVSCKASGYTFTDYWMHWVRQAPGQGLEWMGYINPSSGFTKYHQNFKDRVTMTRDTSISTAYMELSRLTSDDTAVYYCARQYDYDEDWYFDVWGQGTTVTVSS VL: DIQMTQSPSSLSASVGDRVTITCKSSQSLLNSRTRKNFLAWYQQKPGKAPKLLIYWASTRESGVPDRFSGSGSGTDFTLTISSLQPEDFATYYCKQSFNLFTFGQGTKLEIK | 0.0209 |
| h001-14 (antibody, human IgG1, V domains shown, Variable regions only; also called h001_VH.1C + h001_VL.1A) VH: QVQLVQSGAEVKKPGASVKVSCKASGYTFNDYWMHWVRQAPGQGLEWMGYINPSSGFTKYHQNFKDRVTMTRDTSISTAYMELSRLTSDDTAVYYCARQYDYDEDWYFDVWGQGTTVTVSS VL: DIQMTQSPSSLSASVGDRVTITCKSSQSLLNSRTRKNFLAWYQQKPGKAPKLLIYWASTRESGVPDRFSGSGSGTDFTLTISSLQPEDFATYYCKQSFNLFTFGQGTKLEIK | 0.0112 |
| h001-19 (antibody, human IgG1, V domains shown, Variable regions only; also called h001_VH.1D + h001_VL.1B) VH: QVQLVQSGAEVKKPGASVKVSCKASGYTFNDYWMHWVRQAPGQGLEWMGYINPSSGFTKYHQNFKDRVTMTADKSISTAYMELSRLTSDDTAVYYCARQYDYDEDWYFDVWGQGTTVTVSS VL: DIQMSQSPSSLSASVGDRVTITCKSSQSLLNSRTRKNFLAWYQQKPGKAPKLLIYWASTRESGVPDRFSGSGSGTDFTLTISSLQPEDFATYYCKQSFNLFTFGQGTKLEIK | 0.0204 |

I am curious: what EC50 value has been reported for h001-21 (antibody, human IgG1, V domains shown, Variable regions only; also called h001_VH.1E + h001_VL.1) VH: QVQLVQSGAEVKKPGASVKVSCKASGYTFNDYWMHWVKQAPGQGLEWIGYINPSSGFTKYHQNFKDKATLTADKSISTAYMELSRLTSDDTAVYYCARQYDYDEDWYFDVWGQGTTVTVSS VL: DIQMTQSPSSLSASVGDRVTITCKSSQSLLNSRTRKNFLAWYQQKPGKAPKLLIYWASTRESGVPSRFSGSGSGTDFTLTISSLQPEDFATYYCKQSFNLFTFGQGTKLEIK ?
0.0119

Moving on to the next binder: h001-3 (antibody, human IgG1, V domains shown, Variable regions only; also called h001_VH.1 + h001_VL.1B) VH: QVQLVQSGAEVKKPGASVKVSCKASGYTFTDYWMHWVRQAPGQGLEWMGYINPSSGFTKYHQNFKDRVTMTRDTSISTAYMELSRLRSDDTAVYYCARQYDYDEDWYFDVWGQGTTVTVSS VL: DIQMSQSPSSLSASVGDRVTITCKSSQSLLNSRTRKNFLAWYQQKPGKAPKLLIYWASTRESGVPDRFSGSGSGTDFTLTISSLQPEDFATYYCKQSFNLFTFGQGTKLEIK
0.0152
